molecular target: LNX1_3, Q8TBB1; test: holdup assay; design: key: below the threshold = too weak to quantify, mostly under pKd 3.1 to 4; details: plain residues with an end cap or a label only (N-terminal biotin on a linker: ado-ado)
Sequence (Q8TBB1 500-596): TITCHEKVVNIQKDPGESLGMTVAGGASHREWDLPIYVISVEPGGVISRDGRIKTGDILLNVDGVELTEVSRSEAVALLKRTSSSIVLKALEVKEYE
reported_metric: pKd

Examples with answers:
>>> result("MQILSKPEFI [NPSR1, Q6W5P4]")
"below the threshold"
>>> result("TKDKVQETQI [LRRC4, Q9HBW1]")
"below the threshold"
>>> result("THREVKFTSL [CD46, P15529]")
"below the threshold"
>>> result("KIEDVEITLV [FCHSD2, O94868]")
"below the threshold"
>>> result("SQDPKKPSRV [CBY2, Q8NA61]")
"below the threshold"

Reported pKd for FVFESRKEIL [TBPL1, P62380] : what is it? below the threshold

Quick one: TKEIPNCTSV [SORCS3, Q9UPU3] below the threshold

Quick one: KAEEKPPSKV [SCN4B, Q8IWT1] below the threshold
